- Tested on: 786-0 renal
- test_name: NCI tumour cell line growth inhibition, 48 h
quantity_name: TGI

Bench note: what TGI did COc1cc(CNc2ccc3nc4n(c(=O)c3c2)CCCCC4)cc(OC)c1OC show? > 100 µM

Same again, this time with CCOC(=O)N1CCc2cc(OC)c(OC)c3c2c1cc1cc(OC)c(OC)cc13 > 100 µM

Same again, this time with COC(=O)c1c2c(c(C)[n+]([O-])c1C)C(=O)C=C(NCc1ccc(F)c(Cl)c1)C2=O 3.6 µM

Same again, this time with Cc1cc(S(N)(=O)=O)c(S/C(CC(C)C)=N\Nc2ccc([N+](=O)[O-])cc2)cc1Cl 19.8 µM

Same again, this time with Cc1sc2nc(-c3ccc(Cl)c([N+](=O)[O-])c3)c(/C=N/N=C(N)N)n2c1C 1.92 µM

Same again, this time with CCN1CCN(c2ccc(Nc3ccnc4ccc5c(nnn5C)c34)cc2)CC1 15.9 µM

Same again, this time with CCCCCCCCCc1cc(-c2ccc(C=O)s2)sc1-c1ccc(C=O)s1 > 85.2 µM

Same again, this time with c1ccc(N=C(Nc2ccccc2)N2CCCCC2)cc1 > 100 µM

Same again, this time with O=C(CC1(O)C(=O)Nc2c(Cl)ccc(Cl)c21)c1ccc2ccccc2c1 (stereo not given) 22.4 µM

Same again, this time with CN(C(=O)C12C3C4C1C1C4(C(=O)C45C6C7C4C4C5C6C74C)C3C12C)C(C)(C)C (stereo not given) > 100 µM

----------
- Tested on: HOP-92 NSCLC
- test_name: NCI tumour cell line growth inhibition, 48 h; in the data active = GI50 below about 0.43 µM; inactive = the rest
Choose the fitting class; nothing outside active, inactive is accepted.

Which outcome did this test record for the compound CC(=O)[CH-]C(=O)c1ccccc1.CC(=O)[CH-]C(=O)c1ccccc1.CC(C)CCCC(C)[C@H]1CCC2[C@@H]3CC=C4C[C@@H]([O-])CC[C@]4(C)C3CC[C@@]21C.CC[O-].[Ti+4] (some centres not stated) ? inactive

Same again, this time with NC(N)=N/N=C\c1cccc(OCc2ccccc2)c1 inactive

Same again, this time with CC(=O)[CH-]C(=O)c1ccccc1.CC(=O)[CH-]C(=O)c1ccccc1.CC1(C)C2CCC1(C)C([O-])C2.CC1(C)C2CCC1(C)C([O-])C2.[Ti+4] inactive

Same again, this time with CCCc1cc2c(=O)c(C(=O)OC)c[nH]c2cc1N(CC)CC inactive

Same again, this time with O=C(CN1CCN(CCCOc2c(-c3ccccc3)oc3ccccc3c2=O)CC1)Nc1ccc(Cl)cc1C(=O)c1ccccc1Cl inactive

Same again, this time with Cc1c(-c2c(-c3ccc(F)o3)sc3ncnc(O[C@H](Cc4ccccc4OCc4ccnn4CC(F)(F)F)C(=O)O)c23)ccc(OCCN2CCN(C)CC2)c1Cl inactive

Same again, this time with Ic1ccccc1-c1ccccc1 inactive

Same again, this time with COC(=O)c1c2c(c(C)[n+]([O-])c1C)C(=O)C=C(NCc1ccc(F)c(Cl)c1)C2=O inactive

Same again, this time with C=C1C(=O)O[C@H]2[C@H]1CC/C(Cn1cc(-c3cc(C(F)(F)F)cc(C(F)(F)F)c3)nn1)=C\CC[C@@]1(C)O[C@@H]21 active

Same again, this time with O=C1C(Cl)=C(Nc2cccc(Cl)c2)C(=O)N1Cc1ccccc1Cl inactive

Same again, this time with O=C(Nc1cccc(Cl)c1)c1ccc(NC2=C(Cl)C(=O)N(Cc3ccccc3)C2=O)cc1 inactive

Same again, this time with Cn1c(/C=C(\C#N)c2ccccc2)nc2c(N3CCOCC3)nc(Cl)nc21 active

Same again, this time with Cc1ccc(/C=C2/SC(Nc3nc(-c4csc(NC5=NC(=O)/C(=C\c6ccc(C)cc6)S5)n4)cs3)=NC2=O)cc1 inactive

Same again, this time with c1ccc2[nH]c(-c3ccc(NN=Nc4ccncc4)cc3)nc2c1 inactive

Same again, this time with C=CC(=O)N1CCN(c2nc(=O)n(-c3c(C)ccnc3C(C)C)c3nc(-c4c(O)cccc4F)c(F)cc23)[C@@H](C)C1 inactive

Same again, this time with Cc1cc2nc3c4cc(N)ccc4n(CCN(C)C)c3nc2cc1C inactive

Same again, this time with CCC/C(=N/N=C(N)N)c1ccc(NC(=O)c2cc3cc(OC)ccc3[nH]2)cc1 inactive
